# credit: PubChem BioAssay AID1845202

Tested on: DMS 114 tumor spheroids, viability % test/control
Assay: Anticancer human tumor DMS 114 cell line growth inhibition;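 note: luminescence used as a proxy for viable cells; spheroids exposed to compounds for 7 days before read-out; 100% = DMSO vehicle control viability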
Conditions: second compound 0.003 µM; first compound 0.3 µM; stronger effect = lower value; spheroids with HUVEC and MSC
Form field: viability, T/C (one value per entry).
Report only the number, with the unit % understood.

O=C(c1cc(Cc2n[nH]c(=O)c3ccccc23)ccc1F)N1CCN(C(=O)C2CC2)CC1 + COc1cc2c(cc1O)CCNC21CSC2c3c(OC(C)=O)c(C)c4c(c3C(COC1=O)N1C(O)C3Cc5cc(C)c(OC)c(O)c5C(C21)N3C)OCO4 | 0.22
Cn1ncnc1[C@H]1c2n[nH]c(=O)c3cc(F)cc(c23)N[C@@H]1c1ccc(F)cc1 + COc1cc2c(cc1O)CCNC21CSC2c3c(OC(C)=O)c(C)c4c(c3C(COC1=O)N1C(O)C3Cc5cc(C)c(OC)c(O)c5C(C21)N3C)OCO4 | 0.32

Let's switch to this molecule now.
Using the record for CNCc1ccc(-c2cc(-c3nc(-c4ccc(S(=O)(=O)C(C)C)cc4)cnc3N)on2)cc1 + CC[C@@]1(O)C(=O)OCc2c1cc1n(c2=O)Cc2cc3c(CN(C)C)c(O)ccc3nc2-1 , state its measured viability, T/C.
17.1
